Values were extracted from PubChem BioAssay (NCATS).

test system: Es-2; experiment: Primary qHTS to identify gynecologic anti-cancer compounds using libraries of approved drugs and bioactive compounds (AID 1345084); details: Gynecologic cancer cell panel viability, ATPlite luminescence, 48 h; series mostly up to 57.5 µM; further: on the % scale 0 is the no-effect control and ±100 the full control effect; nearly all actives have a fitted effect of over 55% in size
Inconclusive results are not listed. Active and inactive are the calls of the source. The call rests on the fitted dose curve; in most records, active means well fitted cell-killing curve with a large enough effect; inconclusive means small, poorly fitted or top-dose-only effect, or effect the other way; inactive means flat fitted curve, though single readings scatter.
measured-attribute: activity change, negative = cytotoxicity

{"columns": ["compound", "activity change, negative = cytotoxicity"],
 "data": [
  ["Cn1c(=O)cc(N2CCCC(N)C2)n(Cc2ccccc2C#N)c1=O (configuration not stated)", "inactive"],
  ["C[C@@H]1O[C@@H](O[C@@H]2[C@@H](O)[C@H](O[C@@H]3[C@@H](O)[C@@H](O)[C@H](O[C@H]4[C@H](OC(=O)[C@]56CCC(C)(C)C[C@H]5C5=CCC7[C@@]8(C)C[C@H](O)[C@H](O[C@@H]9O[C@@H](C)[C@H](O)[C@@H](O)[C@H]9O)[C@@](C)(CO)C8CC[C@@]7(C)[C@]5(C)C[C@H]6O)O[C@H](C)[C@H](O)[C@@H]4O)O[C@H]3C)OC[C@H]2O)[C@H](O)[C@H](O)[C@H]1O (some centres not stated)", "-4.41% [at 6.55 µM] (inactive)"],
  ["CCCCS(=O)(=O)Nc1ncnc(OCCOc2ncc(Br)cn2)c1-c1ccc(Br)cc1", "inactive"],
  ["CCC[C@@H]1C[C@@H](C(=O)N[C@@H]([C@H]2O[C@H](SC)[C@H](O)[C@@H](O)[C@@H]2O)[C@@H](C)O)N(C)C1", "inactive"],
  ["CC(NCc1ccc(OCc2cccc(F)c2)cc1)C(N)=O (configuration not stated)", "inactive"]
]}

Look up activity change, negative = cytotoxicity with Es-2 for this compound: Cc1ccc(C(=O)Nc2ccc(Oc3cc4cnn(C)c4cc3-c3cn[nH]c3)c(F)c2)c(=O)n1-c1ccc(F)cc1
inactive

For Es-2, provide activity change, negative = cytotoxicity of CC1CCC(=O)CC(O)C(O)CC(=O)O1 (configuration not stated) please.
inactive
